Tested on: SK-MEL-5
test-summary: Antiproliferative activity against human SK-MEL-5 cells assessed as cell growth at 10^-8 M after 48 hrs by sulforhodamine B assay
Type: functional
protocol-conditions: SK-MEL-5, 48 h, read-out: Activity
Entries and their growth at 0.01 µM
// units = %; emit number, no label

structure=CNC(=O)c1cc(Oc2ccc3nc(NC(=O)c4cc(C(F)(F)F)cc(C(F)(F)F)c4)sc3c2)ccn1 tested_target=SK-MEL-5 quantity_measured="growth at 0.01 µM" numeric_readout=95
structure=CNC(=O)c1cc(Oc2ccc3nc(NC(=O)Nc4cc(C(F)(F)F)cc(C(F)(F)F)c4)sc3c2)ccn1 tested_target=SK-MEL-5 quantity_measured="growth at 0.01 µM" numeric_readout=97
structure=CNC(=O)c1cc(Oc2ccc3nc(NC(=O)Nc4ccc(Cl)c(C(F)(F)F)c4)sc3c2)ccn1 tested_target=SK-MEL-5 quantity_measured="growth at 0.01 µM" numeric_readout=93

In plain terms, CNC(=O)c1cc(Oc2ccc3nc(NC(=O)Nc4ccc(Cl)c(Cl)c4)sc3c2)ccn1 has a documented growth at 0.01 µM of 99

----------
Tested on: M14
test-summary: Antiproliferative activity against human M14 cells assessed as cell growth at 10^-4 M after 48 hrs by sulforhodamine B assay
Format: functional
protocol-conditions: M14, 48 h, read-out: Activity
quantity-measured: growth at 100 µM (%)
// units = %; emit number, no label

// known answers, use as guide
structure=CNC(=O)c1cc(Oc2ccc3nc(NC(=O)Nc4cc(C(F)(F)F)cc(C(F)(F)F)c4)sc3c2)ccn1 numeric_readout=-73
structure=CNC(=O)c1cc(Oc2ccc3nc(NC(=O)Nc4ccc(Cl)c(Cl)c4)sc3c2)ccn1 numeric_readout=-46
structure=CNC(=O)c1cc(Oc2ccc3nc(NC(=O)c4cc(C(F)(F)F)cc(C(F)(F)F)c4)sc3c2)ccn1 numeric_readout=-38

In plain terms, CNC(=O)c1cc(Oc2ccc3nc(NC(=O)Nc4ccc(Cl)c(C(F)(F)F)c4)sc3c2)ccn1 has a documented growth at 100 µM of 15

----------
Tested on: EKVX
test-summary: Antiproliferative activity against human EKVX cells assessed as cell growth at 10^-6 M after 48 hrs by sulforhodamine B assay
Type: functional
protocol-conditions: read-out: Activity
Entries and their growth at 1 µM
// units = %; emit number, no label

// known answers, use as guide
structure=CNC(=O)c1cc(Oc2ccc3nc(NC(=O)Nc4ccc(Cl)c(C(F)(F)F)c4)sc3c2)ccn1 readout_units=% numeric_readout=82
structure=CNC(=O)c1cc(Oc2ccc3nc(NC(=O)Nc4cc(C(F)(F)F)cc(C(F)(F)F)c4)sc3c2)ccn1 readout_units=% numeric_readout=60
structure=CNC(=O)c1cc(Oc2ccc3nc(NC(=O)c4cc(C(F)(F)F)cc(C(F)(F)F)c4)sc3c2)ccn1 readout_units=% numeric_readout=90

The record that follows has no growth at 1 µM shown yet.
In plain terms, CNC(=O)c1cc(Oc2ccc3nc(NC(=O)Nc4ccc(Cl)c(Cl)c4)sc3c2)ccn1 has a documented growth at 1 µM of 86

----------
test-summary: Antiproliferative activity against human HOP62 cells assessed as growth inhibition after 48 hrs by sulforhodamine B assay
Format: functional
protocol-conditions: HOP-62, 48 h
quantity-measured: TGI (µM)
// units = µM; emit number, no label

structure=CNC(=O)c1cc(Oc2ccc3nc(NC(=O)Nc4ccc(Cl)c(C(F)(F)F)c4)sc3c2)ccn1 quantity_measured=TGI readout_units=µM numeric_readout=4.74
structure=CNC(=O)c1cc(Oc2ccc(NC(=O)Nc3ccc(Cl)c(C(F)(F)F)c3)cc2)ccn1 quantity_measured=TGI readout_units=µM numeric_readout=7.94
structure=CNC(=O)c1cc(Oc2ccc3nc(NC(=O)c4cc(C(F)(F)F)cc(C(F)(F)F)c4)sc3c2)ccn1 quantity_measured=TGI readout_units=µM numeric_readout=10.8
structure=CNC(=O)c1cc(Oc2ccc3nc(NC(=O)Nc4cc(C(F)(F)F)cc(C(F)(F)F)c4)sc3c2)ccn1 quantity_measured=TGI readout_units=µM numeric_readout=2.8

The record that follows has no TGI shown yet.
In plain terms, CNC(=O)c1cc(Oc2ccc3nc(NC(=O)Nc4ccc(Cl)c(Cl)c4)sc3c2)ccn1 has a documented TGI of 4

----------
System: NCI-H23
test-summary: Antiproliferative activity against human NCI-H23 cells assessed as cell growth at 10^-5 M after 48 hrs by sulforhodamine B assay
Format: functional
protocol-conditions: NCI-H23, 48 h, read-out: Activity
Kind request: treat 50% as inclusive, so growth at 10 µM at 50% or higher is label 1, anything lower is label 0.

structure=CNC(=O)c1cc(Oc2ccc3nc(NC(=O)Nc4ccc(Cl)c(Cl)c4)sc3c2)ccn1 class_name="label 0"
structure=CNC(=O)c1cc(Oc2ccc3nc(NC(=O)c4ccc5ncccc5c4)sc3c2)ccn1 class_name="label 1"
structure=CNC(=O)c1cc(Oc2ccc3nc(NC(=O)Nc4ccc(F)cc4F)sc3c2)ccn1 class_name="label 0"
structure=CNC(=O)c1cc(Oc2ccc3nc(NC(=O)Nc4cc(C(F)(F)F)cc(C(F)(F)F)c4)sc3c2)ccn1 class_name="label 0"

Please tell me: is the compound CNC(=O)c1cc(Oc2ccc3nc(NC(=O)c4ccc5c(c4)OCCO5)sc3c2)ccn1 at or over 50% in terms of growth at 10 µM?
label 1

Please tell me: is the compound CNC(=O)c1cc(Oc2ccc3nc(NC(=O)c4ccc(Cl)c(C(F)(F)F)c4)sc3c2)ccn1 at or over 50% in terms of growth at 10 µM?
label 1

Please tell me: is the compound CNC(=O)c1cc(Oc2ccc3nc(NC(=O)Nc4ccc(Cl)c(C(F)(F)F)c4)sc3c2)ccn1 at or over 50% in terms of growth at 10 µM?
label 0

Please tell me: is the compound CNC(=O)c1cc(Oc2ccc3nc(NC(=O)Nc4ccc(C(F)(F)F)cc4)sc3c2)ccn1 at or over 50% in terms of growth at 10 µM?
label 1

Please tell me: is the compound CNC(=O)c1cc(Oc2ccc3nc(NC(=O)Nc4ccc(Cl)cc4)sc3c2)ccn1 at or over 50% in terms of growth at 10 µM?
label 1

Please tell me: is the compound CNC(=O)c1cc(Oc2ccc3nc(NC(=O)c4cccc(F)n4)sc3c2)ccn1 at or over 50% in terms of growth at 10 µM?
label 1

Please tell me: is the compound CNC(=O)c1cc(Oc2ccc3nc(NC(=O)c4cc(C(F)(F)F)cc(C(F)(F)F)c4)sc3c2)ccn1 at or over 50% in terms of growth at 10 µM?
label 0

----------
Entries and their GI50
System: MDA-MB-468
test-summary: Antiproliferative activity against human MDA-MB-468 cells assessed as growth inhibition after 48 hrs by sulforhodamine B assay
Type: functional
protocol-conditions: MDA-MB-468, 48 h
// units = µM; emit number, no label

// known answers, use as guide
compound=CNC(=O)c1cc(Oc2ccc3nc(NC(=O)Nc4ccc(Cl)c(Cl)c4)sc3c2)ccn1 numeric_readout=1.97
compound=CNC(=O)c1cc(Oc2ccc3nc(NC(=O)c4cc(C(F)(F)F)cc(C(F)(F)F)c4)sc3c2)ccn1 numeric_readout=3.18
compound=CNC(=O)c1cc(Oc2ccc3nc(NC(=O)Nc4ccc(Cl)c(C(F)(F)F)c4)sc3c2)ccn1 numeric_readout=1.36
compound="CNC(=O)c1cc(Oc2ccc(NC(=O)Nc3ccc(Cl)c(C(F)(F)F)c3)cc2)ccn1 [SORAFENIB]" numeric_readout=2

The record that follows has no GI50 shown yet.
In plain terms, CNC(=O)c1cc(Oc2ccc3nc(NC(=O)Nc4cc(C(F)(F)F)cc(C(F)(F)F)c4)sc3c2)ccn1 has a documented GI50 of 0.399

----------
test-summary: Antiproliferative activity against human OVCAR4 cells assessed as growth inhibition after 48 hrs by sulforhodamine B assay
Assay type: functional
protocol-conditions: OVCAR-4, 48 h, read-out: LC50 (the source's name)
quantity-measured: CC50 (µM)
// units = µM; emit number, no label

// known answers, use as guide
structure=CNC(=O)c1cc(Oc2ccc3nc(NC(=O)Nc4ccc(Cl)c(Cl)c4)sc3c2)ccn1 quantity_measured=CC50 readout_units=µM numeric_readout=7.89
structure=CNC(=O)c1cc(Oc2ccc(NC(=O)Nc3ccc(Cl)c(C(F)(F)F)c3)cc2)ccn1 quantity_measured=CC50 readout_units=µM numeric_readout=100

The record that follows has no CC50 shown yet.
In plain terms, CNC(=O)c1cc(Oc2ccc3nc(NC(=O)Nc4cc(C(F)(F)F)cc(C(F)(F)F)c4)sc3c2)ccn1 has a documented CC50 of 7.58

----------
Test system: MDA-MB-468
test-summary: Antiproliferative activity against human MDA-MB-468 cells assessed as cell growth at 10^-7 M after 48 hrs by sulforhodamine B assay
Assay type: functional
protocol-conditions: MDA-MB-468, 48 h, read-out: Activity
Entries and their growth at 0.1 µM
// units = %; emit number, no label

// known answers, use as guide
structure=CNC(=O)c1cc(Oc2ccc3nc(NC(=O)c4cc(C(F)(F)F)cc(C(F)(F)F)c4)sc3c2)ccn1 tested_target=MDA-MB-468 readout_units=% numeric_readout=96
structure=CNC(=O)c1cc(Oc2ccc3nc(NC(=O)Nc4cc(C(F)(F)F)cc(C(F)(F)F)c4)sc3c2)ccn1 tested_target=MDA-MB-468 readout_units=% numeric_readout=91
structure=CNC(=O)c1cc(Oc2ccc3nc(NC(=O)Nc4ccc(Cl)c(C(F)(F)F)c4)sc3c2)ccn1 tested_target=MDA-MB-468 readout_units=% numeric_readout=85

The record that follows has no growth at 0.1 µM shown yet.
The compound CNC(=O)c1cc(Oc2ccc3nc(NC(=O)Nc4ccc(Cl)c(Cl)c4)sc3c2)ccn1 on MDA-MB-468: growth at 0.1 µM was 91
